experiment: clinical; details: human, in vivo
value_type: Vd (L)
Lab book: enter the figure in L, no units written.

Ask: Field request: Vd | item: NCCCC[C@H](NC(=O)[C@@H]1CCCN1C(=O)[C@@H]1CSSC[C@H](N)C(=O)N[C@@H](Cc2ccc(O)cc2)C(=O)N[C@@H](Cc2ccccc2)C(=O)N[C@@H](CCC(N)=O)C(=O)N[C@@H](CC(N)=O)C(=O)N1)C(=O)NCC(N)=O
Result: 1370

----------
experiment: Pharmacokinetic modeling with sparse PK samples from 69 patients with HRS-1; details: human, in vivo, iv, 1 mg, median Cmax at steady state, 1 mg IV injection of terlipressin acetate
Where a SMILES comes first, the peptide text is derived from it. Bridges are numbered along the chain shown (N, C = ends).
value_type: Cmax (ng/mL)
Number only, in ng/mL; omit the unit.

Ask: What Cmax value was documented for this compound, NCCCC[C@H](NC(=O)[C@@H]1CCCN1C(=O)[C@@H]1CSSC[C@H](NC(=O)CNC(=O)CNC(=O)CN)C(=O)N[C@@H](Cc2ccc(O)cc2)C(=O)N[C@@H](Cc2ccccc2)C(=O)N[C@@H](CCC(N)=O)C(=O)N[C@@H](CC(N)=O)C(=O)N1)C(=O)NCC(N)=O [Terlipressin] (H-GGGCYFQNCPKG-NH2; disulfide 4-9 (inferred)) ?
Result: 70.5
